# measurementTarget: human MetAP2 enzyme (Homo sapiens, UniProt P50579)
# Sequence (P50579 whole entry): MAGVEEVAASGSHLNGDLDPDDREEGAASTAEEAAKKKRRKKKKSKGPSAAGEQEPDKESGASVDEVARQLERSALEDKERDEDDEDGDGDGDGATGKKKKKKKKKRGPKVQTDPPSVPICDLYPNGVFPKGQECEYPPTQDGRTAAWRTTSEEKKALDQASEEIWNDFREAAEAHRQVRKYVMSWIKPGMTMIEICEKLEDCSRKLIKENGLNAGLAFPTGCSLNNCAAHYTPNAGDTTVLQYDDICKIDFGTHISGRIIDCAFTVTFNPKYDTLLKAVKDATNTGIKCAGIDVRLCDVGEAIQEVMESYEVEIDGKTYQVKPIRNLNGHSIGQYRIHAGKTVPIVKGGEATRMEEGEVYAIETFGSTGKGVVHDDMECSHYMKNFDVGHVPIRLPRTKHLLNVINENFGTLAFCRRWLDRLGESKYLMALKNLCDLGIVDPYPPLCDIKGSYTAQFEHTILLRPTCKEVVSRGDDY
# experimentalDetails: MetAP2 enzyme assay, MetAP2 enzyme complexed with cobalt ions
# conditionDescription: MetAP2 Co pIC50, 10 μM CoCl2; -log(IC50), IC50 molar
endpointLabel: IC50 (nM)

The examples below pair each entry with its known result.
[[record]]
compound = "Cc1nc(N2CC(CO)C2)ncc1-n1c2ccc(F)cc2c2[nH]ncc21 [Example 47]"
endpointlabel = "IC50"
number = 7.94

[[record]]
compound = "Cc1nc(N2CC(F)(F)C2)ncc1-n1c2ccc(F)cc2c2[nH]ncc21 [Example 43]"
endpointlabel = "IC50"
number = 12.6

[[record]]
compound = "Cc1ncncc1-n1c2ccc(F)cc2c2[nH]ncc21 [Example 49]"
endpointlabel = "IC50"
number = 63.1

[[record]]
compound = "Cc1nc(N)ccc1-n1c2ccc(F)cc2c2[nH]ncc21 [Example 42]"
endpointlabel = "IC50"
number = 10

[[record]]
compound = "Cc1nn(C)c(C)c1-n1c2ccc(F)cc2c2[nH]ncc21 [Example 62]"
endpointlabel = "IC50"
number = 25.1


A: Cc1nc(C(=O)NCC(N)=O)ccc1-n1c2ccc(F)cc2c2[nH]ncc21 [Example 124]
B: Cc1nc(N2CC(C(N)=O)C2)ncc1-n1c2ccc(F)cc2c2[nH]ncc21 [Example 89]
C: Cc1nc(N[C@@H](C)CO)ncc1-n1c2ccc(F)cc2c2[nH]ncc21 [Example 91]
D: Cc1nc(N2CCN(C)CC2)ncc1-n1c2ccc(F)cc2c2[nH]ncc21 [Example 60]
Problem: Form: Sort by [IC50] Order [ ascending ] API: response body holds the labels in the requested order.
Solution: D, C, A, B
(D: 3.16 nM, C: 6.31 nM, A: 10 nM, B: 20 nM)

Hello, the source for this data is patent US9475816B2, in case you need it.
